Taken from the Immune Epitope Database (IEDB).

molecular target: HLA-A*11:01; test: IEDB peptide-MHC binding, purified MHC/direct/fluorescence; filed as Kd, often an IC50 or EC50 that approximates it; bounds were set here for any values at or beyond the usual limits of such assays; details: source organism: Giardia lamblia ATCC 50803
parameter: Kd

In plain terms, `IHKPRPPAT` has a documented Kd of ≥ 20 µM

====

target: HLA-B*44:02; test: IEDB peptide-MHC binding, purified MHC/direct/fluorescence; filed as Kd, often an IC50 or EC50 that approximates it; bounds were set here for any values at or beyond the usual limits of such assays; conditions: source organism: Mycobacterium tuberculosis variant bovis
parameter: Kd

get_value(item= `HQAIISDVL` , readout=Kd) returns ≥ 20 µM

====

molecular target: HLA-B*07:02; experiment: IEDB peptide-MHC binding, purified MHC/direct/fluorescence; filed as Kd, often an IC50 or EC50 that approximates it; bounds were set here for any values at or beyond the usual limits of such assays; settings: source organism: Giardia lamblia ATCC 50803
parameter: Kd

Recorded Kd (sequence `IHKPRPPAT` ): ≥ 20 µM

====

target: HLA-A*33:01; assay: IEDB peptide-MHC binding, purified MHC/competitive/radioactivity; filed as Kd, often an IC50 or EC50 that approximates it; bounds were set here for any values at or beyond the usual limits of such assays; details: source organism: Dengue virus 2 Peru/IQT2913/1996
parameter: Kd
Reply with the number and its unit after it.

Noted for `TVMAFHLTTR` : its Kd reads 8.12 nM

====

target: HLA-B*27:20; assay: IEDB peptide-MHC binding, purified MHC/competitive/fluorescence; filed as Kd, often an IC50 or EC50 that approximates it; bounds were set here for any values at or beyond the usual limits of such assays; settings: source organism: Yellow fever virus
parameter: Kd

For reference, reported Kd for `RRRLRTLVL` stands at 0.2 nM

====

target: HLA-A*26:01; assay: IEDB peptide-MHC binding, purified MHC/direct/fluorescence; filed as Kd, often an IC50 or EC50 that approximates it; bounds were set here for any values at or beyond the usual limits of such assays; details: source organism: Vibrio vulnificus CMCP6
parameter: Kd (nM)
Only the number, expressed in nM, is required.

// returns Kd for `QTDPLWQKY` with HLA-A*26:01; value = 2780

====

molecular target: HLA-B*48:01; experiment: IEDB peptide-MHC binding, purified MHC/direct/fluorescence; filed as Kd, often an IC50 or EC50 that approximates it; bounds were set here for any values at or beyond the usual limits of such assays; settings: source organism: Mycobacterium tuberculosis
parameter: Kd

Value of measured Kd for the entry `WEITYLGTT` : ≥ 20 µM

====

biological target: HLA-B*27:05; experiment: IEDB peptide-MHC binding, purified MHC/direct/fluorescence; filed as Kd, often an IC50 or EC50 that approximates it; bounds were set here for any values at or beyond the usual limits of such assays; details: source organism: Homo sapiens
parameter: pKd
Lab note: report pKd as minus log10 of the concentration in molar units, number only.

Looking up `ARLFGIRAK` , I found its pKd recorded as 5.98

====

target: HLA-A*26:01; assay: IEDB peptide-MHC binding, purified MHC/competitive/radioactivity; filed as Kd, often an IC50 or EC50 that approximates it; bounds were set here for any values at or beyond the usual limits of such assays; settings: source organism: Mammarenavirus juninense
parameter: Kd

Summary for this sequence, `LCLSGDGWPY` : Kd is ≥ 69.7 µM

====

target: HLA-A*68:01; test: IEDB peptide-MHC binding, purified MHC/competitive/radioactivity; filed as Kd, often an IC50 or EC50 that approximates it; bounds were set here for any values at or beyond the usual limits of such assays; details: source organism: Vaccinia virus WR
Assign classes using reported Kd values and the ranges band A: < 80 nM; band B: ≥ 80 nM and < 600 nM; band C: ≥ 600 nM, please.

In: Using the reported Kd, which band applies to `FAEESYTYYY` ?
Out: band B

In: In plain terms, what class is `PMVIENGILK` ?
Out: band B

In: Category of `LSEYETMVDY` , please.
Out: band C

In: Any idea which band `NSSAVVDNK` is in?
Out: band A

In: Which class holds `FVNEKYCIIK` ?
Out: band B

In: Which bin, given its Kd, does `KLVKSLVDK` occupy?
Out: band C

In: Band of `NTLISSDGAR` ?
Out: band A

In: Determine which band this sequence sits in: `PLFDFVNEK`
Out: band B

In: Returns: class label. Input: `IILARNEEGR`
Out: band C

In: Which class does `IVSLCPTKK` fall in?
Out: band C

In: Band for the recorded Kd of `FLRSIAMLK` ?
Out: band B

In: Form: Item = `LFYTFAISY` ; Class = ?
Out: band C

In: Using the reported Kd, which band applies to `ELYDTSPTKR` ?
Out: band A

In: Kindly state the category for this sequence: `RASTTENAAY`
Out: band C

In: Category of `CSKHMDARY` , please.
Out: band C

In: Which band does `NSKYSYELY` fall in?
Out: band A

In: Which class does `VMNFIPIIY` fall in?
Out: band C

In: Kindly state the category for this sequence: `YTYDRVDIY`
Out: band A

In: Pick a category. Item: `SILSLETVK`
Out: band B

====

target: HLA-A*03:01; experiment: IEDB peptide-MHC binding, purified MHC/direct/fluorescence; filed as Kd, often an IC50 or EC50 that approximates it; bounds were set here for any values at or beyond the usual limits of such assays; details: source organism: Yersinia pestis
parameter: Kd

The recorded Kd for `RPQLWRYRW` is ≥ 20 µM

====

molecular target: HLA-B*07:02; experiment: IEDB peptide-MHC binding, purified MHC/direct/fluorescence; filed as Kd, often an IC50 or EC50 that approximates it; bounds were set here for any values at or beyond the usual limits of such assays; conditions: source organism: SARS-CoV1
parameter: Kd (nM)
Output spec: scalar in nM, unitless text.

The sequence identified as `TPRDLGACI` registered its Kd at 188

====

biological target: HLA-A*11:01; experiment: IEDB peptide-MHC binding, purified MHC/competitive/radioactivity; filed as Kd, often an IC50 or EC50 that approximates it; bounds were set here for any values at or beyond the usual limits of such assays; conditions: source organism: Vaccinia virus WR
Please assign a class to every record based on measured Kd, with ranges 0 (below 30 nM), 1 (30 nM to below 400 nM), 2 (400 nM or more)

In: Lab log: `KSINKVYGR` — assign Kd category
Out: 0

In: For `DAKNDDWKKY` , which Kd bin applies?
Out: 2

In: Lab note: which band did `SSSVDVDIY` land in?
Out: 2

In: For `RSKQKIGDLR` , which Kd bin applies?
Out: 2

In: Class (by measured Kd) for `VMNFIPIIY`
Out: 1

In: Record `NTLISSDGAR` — which class?
Out: 1

In: Lab log: `YTFFSYLMK` — assign Kd category
Out: 0

In: // bin(item) where item = `FAEESYTYYY`
Out: 2

In: Which class holds `YLLVKWIRK` ?
Out: 1

In: Form: Item = `PLHILASNKK` ; Class = ?
Out: 2

In: Band of `STIANSNIIK` ?
Out: 0

In: Bin? `NMVSDTIMKR`
Out: 1

In: Would you mind sorting `NVFKAMETFK` into the appropriate category?
Out: 0

In: Given `VSLVKKNKKR` , name the class its Kd places it in.
Out: 2

In: Could you place `DTEDIVSDSK` in its proper category? Many thanks.
Out: 2

In: Entry `KTLDISSFY` belongs to which category?
Out: 0

In: Band of `CIFAFIDFSK` ?
Out: 0

In: Form field 'band' for `NSSAVVDNK`
Out: 1

In: Categorize the following entry: `TAKVIKLVK`
Out: 2

In: Which Kd band matches `ASTISWMMK` ?
Out: 0

In: // bin(item) where item = `PLFDFVNEK`
Out: 2

In: Given `DIDILQTNSR` , name the class its Kd places it in.
Out: 2

In: Pick a category. Item: `GLLDSIKMIY`
Out: 2

In: Each sequence maps to one class by Kd. Which class for `NSKYSYELY` ?
Out: 2

In: In plain terms, what class is `SSTCSAVTDR` ?
Out: 1

In: Band assignment needed for `YLINPNILY` please.
Out: 1

In: Please classify: `ELGFNYPEY`
Out: 2

In: Where would `PVLKAMHDK` land among the classes by reported Kd?
Out: 2

In: Which bin should I file `ITGNNIILSK` under?
Out: 0

In: Kindly state the category for this sequence: `VIRLLIWAY`
Out: 2

In: Which Kd category applies to `KVFSFWLLCK` here?
Out: 0

In: Which of the defined bands does the recorded Kd of `LSEYETMVDY` sit within?
Out: 2

In: Hello team, could you let me know which band the following sequence falls into: `DVDTSASEIK`
Out: 2

In: For this sequence, which bin applies? `KLVKSLVDK`
Out: 1

In: Class? Entry: `MLFTSTNDK`
Out: 0

In: Determine which band this sequence sits in: `IMDKEQLLK`
Out: 0

In: Quick check: band for `YTYDRVDIY`
Out: 0

In: Class? Entry: `KLDDVEKEK`
Out: 1

In: Using the reported Kd, which band applies to `ALFMYYAKR` ?
Out: 1

In: Band for `SILSLETVK` ?
Out: 0

In: Form: Item = `GMDYEEYKSK` ; Class = ?
Out: 1

In: Band for `IFVSLVKKNK` ?
Out: 2

In: Just checking, what class would you give `PMVIENGILK` here?
Out: 1
